experiment: IV pharmacokinetics; assay type: in vivo, Sprague Dawley rats; conditions: rat, 2 mg/kg, normal saline (compounds marked * in 1% NMP and 99% normal saline)
recorded_endpoint: Vss (L/kg)
Give bare numbers, in L/kg.

compound: C[C@@H](O)[C@H](N)C(=O)N1CCN(C)CC12CNC2=O (single isomer, unassigned) [EJ-2]
Vss, L/kg: 1.35
//
compound: C[C@@H](O)[C@H](N)C(=O)N1CCN(C)CC12CNC2=O (single isomer, unassigned) [EJ-1]
Vss, L/kg: 0.62
//
compound: O=C1NCC12CNCCN2Cc1ccccc1 (single isomer, unassigned)
Vss, L/kg: 1.45

Would you kindly look at the next entry?
Name the recorded Vss for CN1CCN(Cc2ccccc2)C2(CNC2=O)C1 (single isomer, unassigned) .
0.96
